# TESTED TARGET: Plasmodium falciparum calcium-dependent protein kinase 1 (CDPK1) (Plasmodium falciparum, UniProt P62344)
# Construct: 6-Histidine (N); made in house
# Sequence (P62344 whole entry): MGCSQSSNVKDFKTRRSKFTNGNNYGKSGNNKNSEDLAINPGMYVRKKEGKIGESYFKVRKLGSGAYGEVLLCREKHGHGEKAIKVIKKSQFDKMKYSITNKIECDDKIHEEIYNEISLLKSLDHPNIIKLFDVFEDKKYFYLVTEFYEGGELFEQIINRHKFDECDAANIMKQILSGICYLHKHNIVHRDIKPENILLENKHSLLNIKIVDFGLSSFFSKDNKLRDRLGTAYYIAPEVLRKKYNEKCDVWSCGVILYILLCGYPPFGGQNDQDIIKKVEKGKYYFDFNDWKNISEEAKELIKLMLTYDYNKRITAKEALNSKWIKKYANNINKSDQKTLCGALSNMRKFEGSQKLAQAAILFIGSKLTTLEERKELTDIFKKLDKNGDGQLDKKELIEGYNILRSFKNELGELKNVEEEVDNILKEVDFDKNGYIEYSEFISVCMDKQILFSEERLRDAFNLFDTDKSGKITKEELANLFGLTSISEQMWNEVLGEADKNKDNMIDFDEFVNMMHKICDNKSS
# ASSAY SUMMARY: CDPK1 Kinase-Glo ATP-consumption screen and dose-response
# Assay type: biochemical
pIC50: −log10 of the molar value.
VALUE KIND: pIC50

[
  {
    "STRUCTURE": "COc1ccc(-c2cnc3ccc(NCCCO)nn23)cc1OC",
    "REPORTED VALUE": 6.44
  },
  {
    "STRUCTURE": "CCN(CC)CCOc1ccc(Nc2ncc3cc(-c4c(Cl)cccc4Cl)c(=O)n(C)c3n2)cc1",
    "REPORTED VALUE": 6.11
  }
]

###

Listed here: molecules with reported pIC50 for Plasmodium falciparum protein kinase 7 (PK7) (Plasmodium falciparum).
pIC50: −log10 of the molar value.

[
  {
    "MOLECULE": "OC1CCC(Nc2ccc3ncc(-c4ccc(Cl)cc4)n3n2)CC1 (centres unmarked) [TCMDC-136693]",
    "pIC50": 6.36
  },
  {
    "MOLECULE": "O=C(O)c1ccc(-c2cnc3ccc(NC4CCC(O)CC4)nn23)cc1 (centres unmarked) [TCMDC-136692]",
    "pIC50": 6.38
  }
]

###

Recorded IC50 values (UniProt P51817) are given below.
Sequence (P51817 whole entry): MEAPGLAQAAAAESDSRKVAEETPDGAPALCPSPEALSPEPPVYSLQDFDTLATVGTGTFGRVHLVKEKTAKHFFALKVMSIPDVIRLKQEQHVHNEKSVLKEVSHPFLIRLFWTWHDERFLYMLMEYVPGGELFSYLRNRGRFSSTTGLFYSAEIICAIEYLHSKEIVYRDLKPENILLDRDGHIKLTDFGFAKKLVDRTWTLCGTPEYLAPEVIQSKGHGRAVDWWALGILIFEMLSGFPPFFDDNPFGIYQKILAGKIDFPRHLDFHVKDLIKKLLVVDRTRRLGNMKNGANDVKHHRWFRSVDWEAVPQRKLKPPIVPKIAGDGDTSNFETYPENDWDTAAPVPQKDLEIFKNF

[
  {
    "MOLECULE": "Cl.NCC1(c2nc(-c3ccc(Cl)c(O)c3)c(-c3ccncc3)[nH]2)CCCCC1",
    "TESTED TARGET": "UniProt P51817",
    "IC50": "> 20 µM"
  },
  {
    "MOLECULE": "CN(C)CC(O)COc1ccc(Nc2ncc([N+](=O)[O-])c(Nc3ccccc3O)n2)cc1.O=C(O)C(F)(F)F (stereo not drawn)",
    "TESTED TARGET": "UniProt P51817",
    "IC50": "> 20 µM"
  },
  {
    "MOLECULE": "CN1CCN(c2ccc(Nc3ncc(C#N)c(Nc4ccccc4C(N)=O)n3)cc2)CC1.Cl",
    "TESTED TARGET": "UniProt P51817",
    "IC50": "1.3 µM"
  }
]

###

# TESTED TARGET: ABL2 (Homo sapiens, UniProt P42684)
# Sequence (P42684 whole entry): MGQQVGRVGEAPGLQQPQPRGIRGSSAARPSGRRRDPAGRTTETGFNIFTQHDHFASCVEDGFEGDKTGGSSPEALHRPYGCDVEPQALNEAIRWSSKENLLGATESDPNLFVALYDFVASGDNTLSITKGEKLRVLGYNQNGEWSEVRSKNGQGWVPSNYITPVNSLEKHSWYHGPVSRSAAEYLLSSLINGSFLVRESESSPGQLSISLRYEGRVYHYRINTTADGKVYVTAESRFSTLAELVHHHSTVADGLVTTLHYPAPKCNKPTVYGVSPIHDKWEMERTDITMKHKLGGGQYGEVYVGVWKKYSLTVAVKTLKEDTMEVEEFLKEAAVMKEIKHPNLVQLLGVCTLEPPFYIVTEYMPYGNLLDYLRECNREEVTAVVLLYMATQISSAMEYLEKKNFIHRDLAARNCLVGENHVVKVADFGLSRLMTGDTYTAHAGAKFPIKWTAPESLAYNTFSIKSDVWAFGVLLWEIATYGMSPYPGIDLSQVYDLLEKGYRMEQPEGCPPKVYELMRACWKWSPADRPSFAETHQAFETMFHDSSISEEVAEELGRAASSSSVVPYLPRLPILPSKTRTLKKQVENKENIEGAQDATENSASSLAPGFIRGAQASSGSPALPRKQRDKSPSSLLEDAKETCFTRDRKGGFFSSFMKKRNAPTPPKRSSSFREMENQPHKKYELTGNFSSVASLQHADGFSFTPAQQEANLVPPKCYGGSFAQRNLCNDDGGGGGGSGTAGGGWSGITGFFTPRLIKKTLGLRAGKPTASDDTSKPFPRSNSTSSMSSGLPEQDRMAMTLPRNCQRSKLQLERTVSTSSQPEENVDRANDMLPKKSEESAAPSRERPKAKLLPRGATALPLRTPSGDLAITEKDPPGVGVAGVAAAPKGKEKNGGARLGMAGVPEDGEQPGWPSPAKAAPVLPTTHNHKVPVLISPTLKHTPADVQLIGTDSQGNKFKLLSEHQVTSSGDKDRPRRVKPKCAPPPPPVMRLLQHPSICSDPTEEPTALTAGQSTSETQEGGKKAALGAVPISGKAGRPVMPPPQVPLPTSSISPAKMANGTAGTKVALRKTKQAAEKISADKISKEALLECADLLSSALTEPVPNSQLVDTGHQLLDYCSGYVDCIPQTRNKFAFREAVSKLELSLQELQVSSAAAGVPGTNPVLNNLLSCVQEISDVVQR
# ASSAY SUMMARY: biochemical
# CONDITION CONTEXT: read-out: KDapp

[
  {
    "MOLECULE": "CN(C)CC(O)COc1ccc(Nc2ncc([N+](=O)[O-])c(Nc3ccccc3O)n2)cc1.O=C(O)C(F)(F)F (stereo not shown)",
    "Kd": "1.89 µM"
  }
]

###

# TESTED TARGET: MAP3K7 (Homo sapiens, UniProt O43318)
# Sequence (O43318 1-606): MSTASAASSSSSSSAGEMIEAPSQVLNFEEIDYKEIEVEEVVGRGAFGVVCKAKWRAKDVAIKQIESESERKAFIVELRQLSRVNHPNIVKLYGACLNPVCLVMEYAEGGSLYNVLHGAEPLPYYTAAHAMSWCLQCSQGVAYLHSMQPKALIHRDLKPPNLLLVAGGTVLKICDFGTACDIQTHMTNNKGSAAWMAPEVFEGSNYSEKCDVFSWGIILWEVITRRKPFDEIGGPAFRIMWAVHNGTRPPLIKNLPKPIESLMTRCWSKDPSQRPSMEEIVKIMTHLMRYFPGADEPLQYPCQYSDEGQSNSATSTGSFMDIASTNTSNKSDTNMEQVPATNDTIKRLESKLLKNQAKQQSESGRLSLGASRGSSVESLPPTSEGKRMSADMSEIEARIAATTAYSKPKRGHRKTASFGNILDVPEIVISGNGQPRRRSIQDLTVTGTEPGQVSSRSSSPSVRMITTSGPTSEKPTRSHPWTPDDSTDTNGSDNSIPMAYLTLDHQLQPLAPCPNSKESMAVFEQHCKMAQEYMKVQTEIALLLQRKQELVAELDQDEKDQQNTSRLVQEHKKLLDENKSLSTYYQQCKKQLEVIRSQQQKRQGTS
# ASSAY SUMMARY: biochemical
Below is a list of entries, each paired with its recorded IC50 value.
VALUE KIND: IC50

[
  {
    "MOLECULE": "CN(C)CC(O)COc1ccc(Nc2ncc([N+](=O)[O-])c(Nc3ccccc3O)n2)cc1.O=C(O)C(F)(F)F (centres unmarked)",
    "VALUE KIND": "IC50",
    "REPORTED VALUE": "> 20 µM"
  },
  {
    "MOLECULE": "Cl.NCC1(c2nc(-c3ccc(Cl)c(O)c3)c(-c3ccncc3)[nH]2)CCCCC1",
    "VALUE KIND": "IC50",
    "REPORTED VALUE": "> 20 µM"
  }
]

###

# TESTED TARGET: Plasmodium falciparum calcium-dependent protein kinase 4 (CDPK4) (Plasmodium falciparum, UniProt Q8IBS5)
# Construct: 6-Histidine (N)
# Sequence (Q8IBS5 whole entry): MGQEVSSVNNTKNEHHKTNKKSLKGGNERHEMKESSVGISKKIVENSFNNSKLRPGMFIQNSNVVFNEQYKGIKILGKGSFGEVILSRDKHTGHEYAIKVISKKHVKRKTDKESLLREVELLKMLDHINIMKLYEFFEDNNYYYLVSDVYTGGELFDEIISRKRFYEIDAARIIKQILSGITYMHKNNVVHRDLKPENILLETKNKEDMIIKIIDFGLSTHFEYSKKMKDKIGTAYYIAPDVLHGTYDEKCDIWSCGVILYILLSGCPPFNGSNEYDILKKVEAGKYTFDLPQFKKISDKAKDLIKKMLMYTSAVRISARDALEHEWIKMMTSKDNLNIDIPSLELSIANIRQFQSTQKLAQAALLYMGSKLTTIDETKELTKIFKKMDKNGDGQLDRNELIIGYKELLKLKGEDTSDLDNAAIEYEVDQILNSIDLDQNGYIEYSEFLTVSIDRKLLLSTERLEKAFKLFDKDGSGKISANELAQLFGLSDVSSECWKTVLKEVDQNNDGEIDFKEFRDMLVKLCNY
# ASSAY SUMMARY: CDPK4 Kinase-Glo ATP-consumption screen and dose-response
# CONDITION CONTEXT: hits below 1 uM
pIC50: −log10 of the molar value.
# reported pIC50; entries follow
VALUE KIND: pIC50

[
  {
    "COMPOUND": "NS(=O)(=O)c1cccc(Nc2nc(N[C@@H]3CCNC3)nc3cc[nH]c(=O)c23)c1.O=C(O)C(F)(F)F",
    "VALUE KIND": "pIC50",
    "REPORTED VALUE": 6.87
  },
  {
    "COMPOUND": "CC(C)(C)CNCC(C)(C)c1nc(-c2ccc(Cl)c(O)c2)c(-c2ccncc2)[nH]1.Cl",
    "VALUE KIND": "pIC50",
    "REPORTED VALUE": 6.20
  },
  {
    "COMPOUND": "NCCCNc1nc(Nc2cccc(C(N)=O)c2)c2c(=O)[nH]ccc2n1.O=C(O)C(F)(F)F",
    "VALUE KIND": "pIC50",
    "REPORTED VALUE": 6.01
  },
  {
    "COMPOUND": "NS(=O)(=O)CCc1cccc(Nc2nccc(-c3c(-c4cccc(NC(=O)c5c(F)cccc5F)c4)nn4ccccc34)n2)c1",
    "VALUE KIND": "pIC50",
    "REPORTED VALUE": 7.54
  },
  {
    "COMPOUND": "O=C(Nc1c(F)cccc1F)c1cccc(-c2nn3ccccc3c2-c2ccnc(Nc3cccc(-c4cnco4)c3)n2)c1",
    "VALUE KIND": "pIC50",
    "REPORTED VALUE": 6.87
  },
  {
    "COMPOUND": "CCn1c(-c2nonc2N)nc2c(-c3cccc(NC(=O)Nc4cccc(C#N)c4)c3)ncc(OCCCN)c21.O=C(O)C(F)(F)F",
    "VALUE KIND": "pIC50",
    "REPORTED VALUE": 6.77
  },
  {
    "COMPOUND": "CC(c1cccc(Nc2nccc(-c3c(-c4cccc(NC(=O)c5c(F)cccc5F)c4)nn4ncccc34)n2)c1)S(C)(=O)=O (stereo not drawn)",
    "VALUE KIND": "pIC50",
    "REPORTED VALUE": 7.62
  },
  {
    "COMPOUND": "CCn1c(-c2nonc2N)nc2c(-c3ccccc3)ncc(OCCCNCCCN3CCOCC3)c21.O=C(O)C(F)(F)F",
    "VALUE KIND": "pIC50",
    "REPORTED VALUE": 7.42
  },
  {
    "COMPOUND": "Cc1n[nH]c2ccc(-c3cc(OC[C@@H](N)Cc4ccccc4)cnc3-c3cc4ccccc4s3)cc12.O=C(O)C(F)(F)F",
    "VALUE KIND": "pIC50",
    "REPORTED VALUE": 6.25
  },
  {
    "COMPOUND": "O=C(Nc1cccc(-c2nn3ccccc3c2-c2ccnc(Nc3ccc(NCCCN4CCOCC4)c(F)c3)n2)c1)c1c(F)cccc1F",
    "VALUE KIND": "pIC50",
    "REPORTED VALUE": 6.50
  },
  {
    "COMPOUND": "CCS(=O)(=O)c1ccc(OC)c(Nc2nccc(-c3c(-c4cccc(NC(=O)c5c(F)cccc5F)c4)nn4ncccc34)n2)c1",
    "VALUE KIND": "pIC50",
    "REPORTED VALUE": 6.70
  },
  {
    "COMPOUND": "N#Cc1ccc(C(=O)Nc2cc(-c3cccc(O)c3)cc3[nH]ncc23)cc1",
    "VALUE KIND": "pIC50",
    "REPORTED VALUE": 6.32
  },
  {
    "COMPOUND": "CCn1c(-c2nonc2N)nc2c(-c3cccc(NC(=O)Nc4cccc(Cl)c4)c3)ncc(OCCCN)c21.O=C(O)C(F)(F)F",
    "VALUE KIND": "pIC50",
    "REPORTED VALUE": 7.09
  },
  {
    "COMPOUND": "NCC(NC(=O)c1ccc(-c2c[nH]c3ncccc23)s1)c1ccccc1.O=CO (stereo not drawn)",
    "VALUE KIND": "pIC50",
    "REPORTED VALUE": 6.33
  },
  {
    "COMPOUND": "COCCOc1ccc(Nc2nccc(-c3c(-c4cccc(NC(=O)c5c(F)cccc5F)c4)nn4ccccc34)n2)cc1Cl",
    "VALUE KIND": "pIC50",
    "REPORTED VALUE": 6.07
  },
  {
    "COMPOUND": "CCn1c(-c2nonc2N)nc2c(-c3cccc(NC(=O)Nc4cccc(C(F)(F)F)c4)c3)ncc(OCCCN)c21.O=C(O)C(F)(F)F",
    "VALUE KIND": "pIC50",
    "REPORTED VALUE": 6.47
  },
  {
    "COMPOUND": "O=C(Nc1cccc(-c2nn3ccccc3c2-c2ccnc(Nc3ccc(C(=O)N4CCOCC4)cc3)n2)c1)c1c(F)cccc1F",
    "VALUE KIND": "pIC50",
    "REPORTED VALUE": 6.51
  },
  {
    "COMPOUND": "O=C(NCC(c1ccc(C(F)(F)F)cc1)N1CCCC1)c1cc(-c2ccncc2)c(-c2cccc(O)c2)o1.O=C(O)C(F)(F)F (stereo not drawn)",
    "VALUE KIND": "pIC50",
    "REPORTED VALUE": 6.75
  },
  {
    "COMPOUND": "CCN(CC)CCNC(=O)c1ccc(N/C=C2\\C(=O)Nc3ccc(S(=O)(=O)Cc4c(Cl)cccc4Cl)cc32)cc1",
    "VALUE KIND": "pIC50",
    "REPORTED VALUE": 7.14
  },
  {
    "COMPOUND": "CCn1c(-c2nonc2N)nc2c(-c3cccc(NC(=O)Nc4ccc(C(F)(F)F)cc4)c3)ncc(OCCCN)c21.O=C(O)C(F)(F)F",
    "VALUE KIND": "pIC50",
    "REPORTED VALUE": 7.52
  },
  {
    "COMPOUND": "NS(=O)(=O)c1cccc(Nc2nccc(-c3c(-c4cccc(NC(=O)c5c(F)cccc5F)c4)nn4ccccc34)n2)c1",
    "VALUE KIND": "pIC50",
    "REPORTED VALUE": 7.29
  },
  {
    "COMPOUND": "O=C(O)C(F)(F)F.O=c1[nH]ccc2nc(N[C@@H]3CCNC3)nc(Nc3cc(Cl)cc(Cl)c3)c12",
    "VALUE KIND": "pIC50",
    "REPORTED VALUE": 6.35
  },
  {
    "COMPOUND": "CCn1c(-c2nonc2N)nc2c(-c3cccc(NC(=O)Nc4ccc(C#N)cc4)c3)ncc(OCCCN)c21.O=C(O)C(F)(F)F",
    "VALUE KIND": "pIC50",
    "REPORTED VALUE": 7.08
  },
  {
    "COMPOUND": "O=C(Nc1cccc(-c2nn3ccccc3c2-c2ccnc(Nc3ccc(-c4cc[nH]n4)cc3)n2)c1)c1c(F)cccc1F",
    "VALUE KIND": "pIC50",
    "REPORTED VALUE": 6.51
  },
  {
    "COMPOUND": "CN1CCN(c2ccc(Nc3ncc(C#N)c(Nc4ccccc4C(N)=O)n3)cc2)CC1.Cl",
    "VALUE KIND": "pIC50",
    "REPORTED VALUE": 6.73
  },
  {
    "COMPOUND": "CC(=O)Nc1cccc(Nc2nccc(-c3c(-c4cccc(NC(=O)c5c(F)cccc5F)c4)nn4ncccc34)n2)c1",
    "VALUE KIND": "pIC50",
    "REPORTED VALUE": 7.59
  },
  {
    "COMPOUND": "O=C(Nc1cccc(-c2nn3ccccc3c2-c2ccnc(Nc3cccc(-c4cnco4)c3)n2)c1)C1CCCCC1",
    "VALUE KIND": "pIC50",
    "REPORTED VALUE": 6.21
  }
]
